tested.target: human P2X3 receptor (Homo sapiens (Human))
Sequence (P56373 whole entry): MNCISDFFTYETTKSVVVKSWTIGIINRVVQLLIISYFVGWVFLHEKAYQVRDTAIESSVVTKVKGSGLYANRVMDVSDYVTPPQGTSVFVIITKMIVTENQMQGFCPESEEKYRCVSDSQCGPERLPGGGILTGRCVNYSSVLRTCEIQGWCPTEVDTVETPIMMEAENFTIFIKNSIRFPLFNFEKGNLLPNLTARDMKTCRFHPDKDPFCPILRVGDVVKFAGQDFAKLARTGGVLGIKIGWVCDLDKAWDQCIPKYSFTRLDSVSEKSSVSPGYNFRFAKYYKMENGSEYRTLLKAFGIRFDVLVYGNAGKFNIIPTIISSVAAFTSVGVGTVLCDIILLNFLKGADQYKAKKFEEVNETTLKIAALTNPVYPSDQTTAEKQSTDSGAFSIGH
method.description: Evaluation of human P2X3 receptor inhibitory activity (Fluo-3 calcium fluorescence, FDSS 3000, ATP stimulation);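 also: stimulus was 50 nM ATP with fluorescence followed for 3 min, and the response per well was peak post-ATP fluorescence divided by the reading at measurement start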
Type: cell-based
recorded.conditions: human P2X3 receptor, Test Example 1
pIC50: −log10 of the molar value.
pIC50 values for the compounds below.
property.name: pIC50

| compound | tested.target | result.modifier | value.observed |
| --- | --- | --- | --- |
| O=C(Cn1c(=O)[nH]/c(=N\c2ccc(Oc3ncccn3)cc2)n(Cc2ccc(Cl)cc2)c1=O)NCCO [Compound I-2688] | human P2X3 receptor (Homo sapiens (Human)) | = | 7.74 |
| O=c1[nH]/c(=N\c2ccc(Oc3ccon3)cc2)n(Cc2ccc(Cl)cc2)c(=O)n1CCCO [Compound I-2358] | human P2X3 receptor (Homo sapiens (Human)) | = | 8.22 |
| Cn1c(=O)[nH]/c(=N\c2ccc(Oc3nccc(C(N)=O)n3)cc2)n(Cc2ccc(Cl)cc2)c1=O [Compound I-2380] | human P2X3 receptor (Homo sapiens (Human)) | = | 7.54 |
| O=c1[nH]/c(=N\c2ccc(Oc3ccon3)cc2)n(Cc2ccc(Cl)cc2)c(=O)n1CCO [Compound I-2292] | human P2X3 receptor (Homo sapiens (Human)) | = | 7.92 |
| O=c1[nH]/c(=N\c2ccc(Oc3ccnc(F)c3)cc2)n(Cc2ccc(Cl)cc2)c(=O)n1CC(CO)CO [Compound I-2705] | human P2X3 receptor (Homo sapiens (Human)) | = | 8.52 |
| O=c1[nH]/c(=N\c2ccc(Oc3cnccn3)cc2)n(Cc2ccc(Cl)cc2)c(=O)n1CC(CO)CO [Compound I-2710] | human P2X3 receptor (Homo sapiens (Human)) | = | 8.22 |
| CCn1c(=O)[nH]/c(=N\c2ccc(Oc3cc(C(=O)O)sn3)cc2)n(C[C@H]2CC[C@H](C)CC2)c1=O [Compound I-2349] | human P2X3 receptor (Homo sapiens (Human)) | = | 8.40 |
| O=c1[nH]/c(=N\c2ccc(Oc3ccsn3)cc2)n(Cc2ccc(Cl)cc2)c(=O)n1CC(O)CO (stereo not shown) [Compound I-2514] | human P2X3 receptor (Homo sapiens (Human)) | = | 7.96 |
| CCc1cc2cc(/N=c3\[nH]c(=O)n(C[C@H](O)CO)c(=O)n3Cc3ccc(Cl)cc3)ccc2o1 [Compound I-2315] | human P2X3 receptor (Homo sapiens (Human)) | = | 7.77 |
| CCOC(=O)C1(Cn2c(=O)[nH]/c(=N\c3ccc4nc(C)sc4c3)n(Cc3ccc(C)cc3)c2=O)CC1 [Compound I-1545] | human P2X3 receptor (Homo sapiens (Human)) | = | 8.52 |
| Cn1c(=O)[nH]/c(=N\c2ccc(Oc3ccc(C(N)=O)cn3)cc2)n(Cc2ccc(Cl)cc2)c1=O [Compound I-2407] | human P2X3 receptor (Homo sapiens (Human)) | = | 8.05 |
| O=c1[nH]/c(=N\c2ccc(Oc3nccs3)cc2)n(Cc2ccc(Cl)cc2)c(=O)n1CC(CO)CO [Compound I-2437] | human P2X3 receptor (Homo sapiens (Human)) | = | 8.22 |
| COCCn1c(=O)[nH]/c(=N\c2ccc(Oc3ccnc(C(=O)O)c3)cc2)n(Cc2ccc(Cl)cc2)c1=O [Compound I-2552] | human P2X3 receptor (Homo sapiens (Human)) | = | 8.30 |
| Cc1ccc2cc(/N=c3\[nH]c(=O)n(C[C@H](C)C(=O)O)c(=O)n3Cc3ccc(Cl)cc3)ccc2n1 [Compound I-0864] | human P2X3 receptor (Homo sapiens (Human)) | = | 7.46 |
| CC(CO)(CO)Cn1c(=O)[nH]/c(=N\c2ccc(OCC3CC3)cc2)n(Cc2ccc(Cl)cc2)c1=O [Compound I-2616] | human P2X3 receptor (Homo sapiens (Human)) | = | 7.92 |
| Cn1c(=O)[nH]/c(=N\c2ccc(Oc3cc(C(N)=O)n[nH]3)cc2)n(Cc2ccc(Cl)cc2)c1=O [Compound I-2416] | human P2X3 receptor (Homo sapiens (Human)) | = | 7.27 |
| CCn1c(=O)[nH]/c(=N\c2ccc(Oc3ccnnc3)cc2)n(Cc2ccc(C)cc2)c1=O [Compound I-2599] | human P2X3 receptor (Homo sapiens (Human)) | = | 8.40 |
| CCn1c(=O)[nH]/c(=N\c2ccc(O[C@H]3CN[C@H](C(=O)OC)C3)cc2)n(Cc2ccc(Cl)cc2)c1=O [Compound I-2277] | human P2X3 receptor (Homo sapiens (Human)) | = | 6.97 |
| COC(=O)/C=C/c1cccc(Oc2ccc(/N=c3\[nH]c(=O)n(C)c(=O)n3Cc3ccc(C)cc3)cc2)c1 [Compound I-2328] | human P2X3 receptor (Homo sapiens (Human)) | = | 7.47 |
| Cc1ccc(Cn2c(=O)n(CCC(=O)O)c(=O)[nH]/c2=N\c2c(Cl)ccc(C(F)(F)F)c2C)cc1 [Compound I-2090] | human P2X3 receptor (Homo sapiens (Human)) | > | 8.40 |
| CCc1cc2cc(/N=c3\[nH]c(=O)n(CCCOC4CCCCO4)c(=O)n3Cc3ccc(Cl)cc3)ccc2o1 (stereo not shown) [Compound I-2335] | human P2X3 receptor (Homo sapiens (Human)) | = | 8.22 |
| O=c1[nH]/c(=N\c2ccc(Oc3ncns3)cc2)n(Cc2ccc(Cl)cc2)c(=O)n1C[C@H](O)CO [Compound I-2519] | human P2X3 receptor (Homo sapiens (Human)) | = | 8.40 |
| NC(=O)Cn1c(=O)[nH]/c(=N\c2ccc(Oc3cccc(F)n3)cc2)n(Cc2ccc(Cl)cc2)c1=O [Compound I-2584] | human P2X3 receptor (Homo sapiens (Human)) | = | 8.10 |
| O=C(Cn1c(=O)[nH]/c(=N\c2ccc(Oc3ccon3)cc2)n(Cc2ccc(Cl)cc2)c1=O)NCCO [Compound I-2680] | human P2X3 receptor (Homo sapiens (Human)) | = | 7.92 |
| COC(=O)CCn1c(=O)[nH]/c(=N\c2ccc(Oc3nc(C)ns3)cc2)n(Cc2ccc(Cl)cc2)c1=O [Compound I-2651] | human P2X3 receptor (Homo sapiens (Human)) | = | 8.70 |
| Cc1ccc(Cn2c(=O)n(C[C@H](C)C(=O)O)c(=O)[nH]/c2=N\c2ccc(CC(C)(C)F)c(Cl)c2)cc1 [Compound I-1531] | human P2X3 receptor (Homo sapiens (Human)) | = | 7.60 |
| COC(=O)CCn1c(=O)[nH]/c(=N\c2ccc(Oc3ccc(C#N)cn3)cc2)n(Cc2ccc(C)cc2)c1=O [Compound I-2636] | human P2X3 receptor (Homo sapiens (Human)) | = | 8.70 |
| CC(C)Oc1ccc(-n2c(NCc3ccc(Cl)cc3)nc(=S)n(C(C)C)c2=O)cc1 [Compound I-2255] | human P2X3 receptor (Homo sapiens (Human)) | = | 6.27 |
